Experiment: yeast display, Sf9 membrane polyspecificity reagent, FACS + sequencing; frameworks hold sequencing errors
Property measured: polyreactivity (PSR sort gate)

Reference set (8 entries):
QVQLVESGGGLVQAGGSLRLSCAASGRTSYGYAMGWYRQAPGKERELVAAITSSGGSTYYADSVKGRFTISRDNAKNTVYLEMNSLKPEDTAVYYCAASRVRYSYGYPYYYWGQGTQVTVSS; high polyreactivity
QDQLVESGGGLVQAGGSLRLSCAASGSIFVHYVMGWYRQAPGKERELVAAISSRGGGTFYADSVKGRFTISRDNAKNTVYLQMNSLKPEDTAVSYCARVPYFGSGAIRDYWGQGTQVTVSS; high polyreactivity
QVHLVESGGGLVQAGGILRLSCAASGRTFRYYAMGWYRQAPGKERELVAAISSGGSTNYADSVKGRFTISRDNAKNTVYLQMNSLKPEDSAVYYCADLWSGNKFNYWGQGTQVTVSS; low polyreactivity
HDQLVESGGGFVQAGGSLRLSCAASGSIFRYNPMGWYRQAPGKEMELVAAISYGGGITRYADSVKGRFTISRDNAKNTVYLQMNSLKPEDTAVYYCNKAYVWRRMDYWGQGTQVTVSS; high polyreactivity
QVQHVESGRGLVQAGGSLRLSCAASGIIFLYYAMGWYREAPGKVRELVAAITGSGGTTYYADSVKGRFTISRDNAMNTVYLQMNSLKPEDTAVYYCATPPPEVWQRWYREYDYWGQGTQVTVSS; low polyreactivity
QVQLVESGGGIVQAGGSLRLSCAASGIIFQTYAKGWYRQAPGKERELVAAISRSGGSTYYADSVKGRFTISRENSKNTVYLQMNSLKPEDTAVYYCAAYGYNVNWLKGIYWGQGTQVTVSS; high polyreactivity
QVQLVESGGGLVQAGGSLRLSCAASGSIRHNTMGWYRQAPGKEREFVASISKRGGSTYYADSVKGRFTISRDNAKNTVYLQMNSLKPEYTAVYYCNAGAVTFVGRDYWGQGTQVTVSS; high polyreactivity
QVQLVESGGGLVQAGGSLRLSCAASGRTFGNNAMGWSRPAPGKERELVAAITASGGRTYYADSVKGRFTISRDNAKTTVYLQMNSLKPEDTAVYYCADGGPRVNGYGGYYWGQGTQVTVSS; high polyreactivity

# sequence `QVQLVESGGGLVQAGGSLRLICAASGRIFGKNDMGWYREAPRKEREFVATIDWSGGSTYYADSVKGRFTISRDNAKNTVDLQMNSLIPEDNAVYYCAARQYWTTDLPFQRYYYWGQGTQVTVSS` ; its polyreactivity (PSR sort gate) = low polyreactivity

Sure, the documented polyreactivity (PSR sort gate) for `QVQLVESGGGLVQAGGSLRLSCAASGSIFCQYVMGWYRQAPGKERVLVAAISWSGPRTYYADSVKGRFTISRDNAKNTVDLQMNSLKPEDTAVYYCAARRLYAGHQYDYWGQGTQVTVSS` is high polyreactivity

So for `QVQLVESGGGLVQAGGSLRLSCAASGSNVPSYAMGWYRQAPGKERELVAAINSGGGTNYADSVKGRFTISRDNAKNTVYVQMNSLKPEDTAVYYCAKSRYDYTKTEGGYWGQGTQVTVSS` , the logged polyreactivity (PSR sort gate) turned out to be low polyreactivity

Lookup result for `QVQLVESGGGLVQAGGSLRLSCAASGRTFRVYAMGWYRQAPGKERELVAAITGSGDSTYYADSVKGRFTISRDNAKYTVYLQMNSLKPEDTAVYYCNAVYRSTFDYWGQGTQVTVSS` ; measured polyreactivity (PSR sort gate): high polyreactivity

Data point: `QDQLVESGGGLVQAGGRLRLSCAAYGRIFRRYAMGWYRQAPGKEREFVAAISSGGSTYYADSVKVRFTISRDNAKKYRLFTAEQPETGRYRGLLLRCVRYDVNVYDYWGQGTQVTVSS` ; polyreactivity (PSR sort gate) = low polyreactivity

Value of measured polyreactivity (PSR sort gate) for the entry `QVQLVESGGGLVQAGGSLRLSCAASGSTFYYGMGWYRQAPGKERELVAAISSRGGTTYYADSVKGRFTISRDNAKNTVYLQMNSLKPEDTAVDYCAAPVPYYVPRRNEGDYWGQGTQVTVSS` : low polyreactivity

Just so you know, measured polyreactivity (PSR sort gate) for `QVQLVESGGGLVQAGGSLRLSCAASGFTFTYYAMGWYRQAPGKERELVAGISRSGGSTYYADSVKGRFTISRDNAKNTVYLQMNSLKPEDTAVYYCAATAYSPRGKRYDSWGQGTQVTVSS` came out at high polyreactivity

* * *

Assay: yeast display, Sf9 membrane polyspecificity reagent, FACS + sequencing; frameworks hold sequencing errors
Property measured: polyreactivity (PSR sort gate)

Would you please look over these solved cases?
QVQLVESGGGLVQAGGSLRLSCAASGSTFKAYAMGWYRQAPGKERELVAAITKSGGRTYYADSVKGRFTISRDNAKNTVYLQMNSLKPEDTAVYYCAAVFRPDSSAYRYYYWGQGTQVTVSS; high polyreactivity
QVQLVESGGGLVQAGGSLRLSCAASGFTFTDNAMGWSRQAPGKERELVAAISRGVGTNYADSVKGRFTISRDNAKNTVYLQMNSLKPEDTAVYYCAAGGRSVRYNYWGQGTQVTVSS; high polyreactivity
QVQLVESGGGLVQAGGSLRLSCAASGSNFYFYAMGWYRHAPGKERELVAGITSGGITYYADSVKGRFTISRDNAKNTVYLQLNSLKPEDTAVYYCAADFTRRWSKSTPFDSWGQGTQVTVSS; high polyreactivity
QVQLVESGGGLVQAGGSLRLSCAASGFILYTYAMGWYIQAPGKERELVADIDSGDGTYYADSVKGRFTISRDNAKNTVYLQMNSLKPEDTAVDYCAADYGGASEYGYWGQGTQVTVSS; low polyreactivity
PVQLVESGGGLVHAGGSLRLSCAASGLTFRYYAMGLYRQAPGKERELVASISWSGASTYYADSVKGRFTISRDNAKNTVYLQMNSLKPEDTEVYYCNAGYYGSYDYWGQGTQVTVSS; high polyreactivity

Notebook: `QVQLVESGGGLVQEGGSLRLSCAASGSTFEYNAMGWDRQAPGKEREFVAAISRTGSRTYYADSVKGRFTISRDNAKNTVFLQMNSLIPEDTAVYYCASVKSRLQVGYYSWGQGTQVTVSS` , polyreactivity (PSR sort gate) read as high polyreactivity

Given item `QVQLVESGGGLVQAGGSLRLSCAASGITFYDYAMGWYRPAPGKERELVAAINSGDSTNYADSVKGRFTISRDNAKNTVYLQMNSLKPEDTAVYYCAADRYYYSWYTIWYRERIYYWGQGTQVTVSS` , the value recorded as its polyreactivity (PSR sort gate) is low polyreactivity

So, `QVQLVESGGGLVQAGGSLRLSCAASGRTFVYYAMGWYRQAPGKERELVASISSVGTTKYADSVKGRFTISRDNAKNTVYLQMNSLKPEDTAVYYCAAVPLSRNIFDSWGQGTQVTVSS` ? Its polyreactivity (PSR sort gate) was low polyreactivity

polyreactivity (PSR sort gate) measured on `QVQLVESGGGLVQAGGSLRLSCAASGRTFAYNAMGWYRPAPGKEREFVAGISRSGGSTYYADSVKGRFTISRDNAKNTVYLQMNSLKPEDTAVYYCAAQFYALPNVGTKYYSWGQGTQVTVSS` = low polyreactivity

What the record says about `QVQLVESVGGLVQAGGSLRLSLAASGFTFWYYAMGWYRQAPGKERELVAVINTSGGSTYADSVKGRFTISRDNAKNTVYLQMNSLKPEDTAVYYCAAEGISTYPYDYCGQGTQVTVSS` : polyreactivity (PSR sort gate) is low polyreactivity

Per the records, this sequence ( `QVQLVESGGGLVQAGGSLRLSCAASGLTFVANAMGWYRQAPGKERELVAAIDYGGGHTYYADSVKGRFTISRDYAKNTVYLQMNSLKPEDTAVYYCAVGLPHGGRRLYGSWYRFDYWGQGTQVTVSS` ) has polyreactivity (PSR sort gate) equal to low polyreactivity

Measured polyreactivity (PSR sort gate) of `QVQLVESGGGLVQAGGSLRLSCAASVSIFYVYARGCYRQAPGKERELVAAITSSGTTNYADSVKGRFTISRDNAKNTVYLQMNSLKPEDTAVYYCAADPDSGQVPFDYWGQGTHVTVSS` : low polyreactivity

Input `QVQRVESGGGLVQAGGSLRLSCAASGRIFALYARGWYRQAPGKEREWVAAISWSGGSTFYADSVKGRFTSSRDTAKNTVYLQMTSLKPEEPAVYYCNKDHLVYPSEFYYWGQGTQVTVSS` . Output polyreactivity (PSR sort gate): low polyreactivity

Entry `QVQLVESGGGLVQAGGSLRLSCAASGITFLKNAMGWYRQAPGKERELVAAISSSGGSTYYADSVKGRFTISRDNAKNTVYLQMNSLKPEDTAVYFCAARIYWYTPGRRGYTYDYWGQGTQVTVSS` , polyreactivity (PSR sort gate) reported as high polyreactivity

The sequence identified as `QVQLVESGGGLVQAGGRLRLSCAASGLIFYVYAMGWYRQEPGKERELVASITWSGGRTYYADSVKGRFTISRDNEKNTVYLQMNSLKPEDTAVYYCATDLIQGAAPFRYDYWGQGTQVTVSS` registered its polyreactivity (PSR sort gate) at low polyreactivity

Memo: `QVQLVESGGGLVQAGGSLRLSCDASGITFYRYAMGWYRQAPGKERELVAAITSGDTTYYADSVKGRFTISRDNAKNTVYLQMNSLKPEDTADYYCAAVAGYRVVRTRELGYWGQGTQVTVSS` , reported polyreactivity (PSR sort gate): high polyreactivity

The sequence listed as `QVQLVESGGGLVQAGGSLRLSCAASGRIFYPYAMGWYRQAPGKEREFVATITASGGSTYYADSVKGRVTISRDNAKNTVYFQMNSLKPEDTAVYYCAADDPGYYQVEYWGQGTQVTVSS` shows polyreactivity (PSR sort gate) equal to high polyreactivity

Just so you know, measured polyreactivity (PSR sort gate) for `QVQLQESGGGLVQAGGDLRLSCAASGTIFRDYIMGWYRQAPGKEREFVAGIDRGANTNYADSVKGRFTISRDNAKNTVYLQMNSLKPEDTAVYYCAADWWRVDMDYWGQGTQVTVSS` came out at low polyreactivity

Field polyreactivity (PSR sort gate) (entry `QVQLVESGGGLVQAGGSLRLSSAASGSTIRFNAMGWYRQAPGKERELVAVIRWRGGTTYYADSVKGRFTISRDNAKNTVYLQINSLKPEDSAVYYCNADYWFSYTWHGSYTVGYWGQGTQVTVSS` ) reads high polyreactivity

Query `QVQLVESGGGLVQAGGSLRLSCAASGRIFKYYAKGWYRQAPGKERELVAAITSSGVSTYADSVKGRFTISRDNAKNTVYLQMNSLKPEDTAVYYCAADYVREGLGYDYWGQGTQVTVSS` yields polyreactivity (PSR sort gate) of low polyreactivity

Consider `QVQLVQSGGGLVQAGGSLRLSCAATGSTFRIYAIGWYRQAPGKEREFVAAISDRGGRTYYADSVKGRFTISRDNAKNTVYLQMNSLKPEDTAVYYCAAVKLLSSAPGDDGQMNYWGQGTQVTVSS` . Its measured polyreactivity (PSR sort gate) is low polyreactivity
